system: Trypanosoma cruzi; assay: Trypanosoma cruzi phosphomannomutase and mannose-1-phosphate guanylyltransferase assay; assay type: functional; parameters: scale not given: direction of the effect not stated beside the values; conditions: 10 µM
test-readout: Percent Effect (%)

>>> measurement("CCCNC(=O)c1cnc(N(C)C)nc1COC")
2.75
>>> measurement("CN1C(=O)C(C)(C)COc2cc(NS(=O)(=O)c3ccccc3)ccc21")
-0.979
>>> measurement("Cc1nc(C)n(C2CCCN(C(=O)CCCOc3ccccc3)C2)n1 (centres undefined)")
1.5
>>> measurement("Cc1nccn1-c1cc(CNC(=O)CCNC(=O)C2CCCC2)ccn1")
6.63
>>> measurement("CC(=O)NCCNC(=O)CN1CCN(Cc2nccn2C)C(C)C1 (centres undefined)")
-0.836
>>> measurement("Cc1nccn1CCCC(=O)N1CCC(Nc2cccnn2)CC1")
4.43
>>> measurement("CCn1nnc2c1C(COC)CN(C(=O)COc1ccccc1)C2 (centres undefined)")
-2.73
>>> measurement("CCn1cnnc1CNC(=O)N(C)Cc1ccc2c(c1)OCCO2")
0.66
>>> measurement("CN(C)CC(=O)N1CCC2(CC1)CN(c1ccsc1)C(=O)CO2")
-4.33
>>> measurement("CN1CCCC[C@@H]2[C@H]1[C@@H](c1ccccc1)CCN2C(=O)c1ccccc1")
4.54
>>> measurement("Cc1[nH]c(=O)[nH]c(=O)c1CN1CCCC(CCc2c(F)cccc2F)C1 (centres undefined)")
1.16
>>> measurement("CCCc1cc(C(=O)N(C)Cc2cnc3ccccc3n2)n(C)n1")
2.06
>>> measurement("O=C(CCc1nccs1)N1CCC(N2CCNC2=O)CC1")
-3.33
>>> measurement("CN(C)CC1CSCCCN1C(=O)c1ccc(=O)[nH]c1 (centres undefined)")
-5.82
>>> measurement("CC(NCc1ccc(F)cc1)c1ccc(OCC(=O)NC2CC2)cc1 (centres undefined)")
-6.26
>>> measurement("O=C(c1ccnnc1)N1C[C@H]2CCC[C@@]2(COCC2CCOCC2)C1")
7.72
>>> measurement("CCc1cnc2c(c1Nc1ccncc1)c(=O)n(C)c(=O)n2C")
2.27
>>> measurement("CCC1(CO)CCCN(c2ncccc2C#N)C1 (centres undefined)")
-1.74
>>> measurement("CCOc1ccc(C#N)cc1NCC(=O)Nc1cc(C)no1")
3.68
>>> measurement("CNC(=O)Nc1cc(-c2ccccc2C)nn1CCO")
-3.8
>>> measurement("CN1C(=O)C[C@@H]2[C@@H]1CCN2S(=O)(=O)Cc1ccccc1")
-0.595
>>> measurement("c1ccc(CC2CCN(Cc3ccnc(-c4cccnc4)n3)CC2)cc1")
0.198
>>> measurement("CN(CCC(F)(F)F)C(=O)C1CCCN1C(=O)OC(C)(C)C (centres undefined)")
2.15
>>> measurement("CCC(C)(NCC(=O)Nc1nc(C)cs1)c1nc(C)cs1 (centres undefined)")
-3.62

* * *

target: Sialic acid-binding Ig-like lectin 9 (Homo sapiens) (UniProt Q9Y336); assay: Hs-Siglec9 ALPHAscreen SOP 20170721; parameters: scale not given: direction of the effect not stated beside the values; details: 10 µM
Sequence (Q9Y336 whole entry): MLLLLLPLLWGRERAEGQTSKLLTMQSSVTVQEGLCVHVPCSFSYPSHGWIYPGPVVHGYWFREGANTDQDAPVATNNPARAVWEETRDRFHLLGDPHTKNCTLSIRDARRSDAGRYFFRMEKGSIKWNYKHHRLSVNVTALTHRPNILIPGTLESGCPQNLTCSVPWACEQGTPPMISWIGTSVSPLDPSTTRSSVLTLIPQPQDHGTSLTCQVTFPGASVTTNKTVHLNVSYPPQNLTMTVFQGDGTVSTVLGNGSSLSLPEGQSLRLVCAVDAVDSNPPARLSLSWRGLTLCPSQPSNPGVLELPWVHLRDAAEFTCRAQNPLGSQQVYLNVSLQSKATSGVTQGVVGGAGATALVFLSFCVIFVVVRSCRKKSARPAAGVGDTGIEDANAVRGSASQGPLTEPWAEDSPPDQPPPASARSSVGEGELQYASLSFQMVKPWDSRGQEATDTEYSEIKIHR
Below, each entry is listed alongside its reported Percent Effect.
test-readout: Percent Effect

>>> measurement("COc1ccccc1C(=O)N(C)Cc1ncc(C)c(OC)c1C")
"10.5%"
>>> measurement("Cc1nc(NCc2cccnc2)c2c(n1)c(C)nn2C")
"8.94%"
>>> measurement("CC(C)n1cc(S(=O)(=O)N2CCCCC2)cn1")
"14.1%"
>>> measurement("COCC1CC2(CCN(C(=O)c3occc3C)CC2)CO1 (stereo not given)")
"0.84%"
>>> measurement("COc1cccc(CN2CCCCCC2c2cccc(C)c2)c1O (stereo not given)")
"-5.45%"
>>> measurement("CC(C)Nc1ncnc2c1CCN(C(=O)Cc1ccccn1)CC2")
"-2.69%"
>>> measurement("CCNC(=O)N(C)C(c1cccc(F)c1)c1ccccn1 (stereo not given)")
"13%"
>>> measurement("CCOc1ccccc1C(CC(=O)Nc1nc(C)cs1)NC(C)=O (stereo not given)")
"0.981%"
>>> measurement("CC(C)c1nc2n(n1)CC(NCc1nnc(-c3ccco3)o1)CC2 (stereo not given)")
"-0.788%"
>>> measurement("Cc1cc(N2CCCCCC2)n2nc(C)c(C)c2n1")
"0.107%"
>>> measurement("CCOC(=O)N1CCN(Cc2ccc(OCc3nccn3C)cc2)CC1")
"-0.124%"
>>> measurement("O=S(=O)(Cc1ccccc1F)NCCN1CCOCC1")
"-5.08%"
>>> measurement("Cc1cc(Nc2nc(C)cs2)nc(C2CCCCN2CCO)n1 (stereo not given)")
"-8.52%"
>>> measurement("O=C(c1cscn1)N1C[C@@H]2C[C@@H](c3nnc(C4CC4)o3)O[C@@H]2C1")
"-3.79%"
>>> measurement("CCC(=O)NCC(=O)NCc1cc(Br)ccc1OC(F)F")
"53.5%"
>>> measurement("CCC1(CC)Cc2ccccc2-c2nc(NCCO)[nH]c(=O)c21")
"1.17%"
>>> measurement("CC(=O)N(Cc1ncc(C)o1)C1CCN(Cc2ccncc2Cl)C1 (stereo not given)")
"-0.636%"
>>> measurement("Nc1nc(CN2CCCC(Cn3cncn3)C2)nc2ccccc12 (stereo not given)")
"9.62%"
>>> measurement("Cn1nccc1C1CCN(Cc2csc(-c3ncccn3)n2)CC1")
"6.8%"
>>> measurement("Cc1ccc(CN2Cc3nnn(C)c3C(COCCN(C)C)C2)s1 (stereo not given)")
"-1.89%"
>>> measurement("O=C(NC[C@]12COC[C@H]1CN(Cc1nccs1)C2)c1ccccc1")
"6.67%"
>>> measurement("Cc1noc(CN(Cc2ccc3c(c2)OCO3)Cc2ccc(C)o2)n1")
"-9.31%"
>>> measurement("CCCC(NC(=O)c1cc(C)ccc1C)c1nnn[nH]1 (stereo not given)")
"20.1%"
>>> measurement("COC(=O)c1cccc(C(=O)N2CCN(c3ccccc3F)CC2)n1")
"-10.6%"
>>> measurement("Cc1cc(C(=O)N2C[C@@H]3COC[C@]3(COCc3cccnc3)C2)no1")
"-2.26%"

Values from ChEMBL document CHEMBL3988442
